Tested on: MDA-MB-231
Assay: cell viability relative to vehicle unstimulated control (fraction); higher = more viable cells
Conditions: pre-treatment time: 18 h then 24 h IFNg/TNF
Let's look at some compounds and their measured cell viability.
EXPERIMENTAL_READOUT: cell viability

INSERT INTO assay_data (compound, experimental_readout, meas_value) VALUES
  ('CC1=C2[C@@H](OC1=O)[C@H](O)[C@]13[C@H]4C[C@@H](C(C)(C)C)[C@]15[C@@H](OC(=O)[C@@H]5O)O[C@@]23C(=O)O4 [Ginkgolide K] (compound dose: 10 uM)', 'cell viability', 0.996),
  ('C[C@H]1O[C@@H](O[C@H]2[C@@H](O)C[C@H](O[C@H]3[C@@H](O)C[C@H](O[C@H]4CC[C@@]5(C)[C@H](CC[C@@H]6[C@@H]5CC[C@]5(C)[C@@H](C7=CC(=O)OC7)CC[C@]65O)C4)O[C@@H]3C)O[C@@H]2C)C[C@H](O)[C@@H]1O [Digitoxin] (compound dose: 10 uM)', 'cell viability', 0.997),
  ('C=CC(=C)CCC=C(C)CCC=C(C)C [(E)-β-Farnesene] (compound dose: 10 uM)', 'cell viability', 0.977),
  ('C[C@@]12CC[C@@H]3[C@@](CC[C@H]4[C@@]3(C)CCC[C@@]4(C)C(=O)O)(CC1=O)C2 [Isosteviol] (compound dose: 10 uM)', 'cell viability', 1.02),
  ('C=C(C(=O)O)[C@@H]1CC[C@@H](C)[C@@H]2CCC(C)=C[C@@H]21 [Artemisinic acid] (compound dose: 10 uM)', 'cell viability', 1.08),
  ('O=C(O)C1=CO[C@@H](O[C@@H]2O[C@H](CO)[C@@H](O)[C@H](O)[C@H]2O)[C@@H]2C(CO)=CC[C@H]12 [Geniposidic acid] (compound dose: 10 uM)', 'cell viability', 1.02),
  ('CC1(C)[C@@H](O[C@H]2O[C@H](C(=O)O)[C@@H](O)[C@H](O)[C@H]2O[C@@H]2O[C@H](C(=O)O)[C@@H](O)[C@H](O)[C@H]2O)CC[C@]2(C)[C@H]3C(=O)C=C4[C@@H]5C[C@@](C)(C(=O)O)CC[C@]5(C)CC[C@@]4(C)[C@]3(C)CC[C@@H]12 [Ammonium glycyrrhizinate] (compound dose: 10 uM)', 'cell viability', 0.952),
  ('CC1(C)[C@@H](O)CC[C@]2(C)[C@H]3CC=C4[C@@H]5C[C@@]6(C)C[C@H](OC6=O)[C@]5(C)CC[C@@]4(C)[C@]3(C)CC[C@@H]12 [Wilforlide A] (compound dose: 2 uM)', 'cell viability', 0.877),
  ('CC12CCC(CC1)C(C)(C)O2 [1,8-cineole] (compound dose: 10 uM)', 'cell viability', 0.978),
  ('CC(C)c1ccc2c(c1)CC[C@H]1[C@](C)(C(=O)O)CCC[C@]21C [Dehydroabietic acid] (compound dose: 10 uM)', 'cell viability', 1.01),
  ('CC1CCC2(O)C(C)(C)C3CCC2(C)C1C3 (stereo not drawn) [Patchouli alcohol] (compound dose: 10 uM)', 'cell viability', 0.994),
  ('C[C@@H]1O[C@@H](O[C@H]2[C@H](O[C@H]3CC[C@@]4(C)[C@@H](CC[C@]5(C)[C@@H]4CC=C4[C@@H]6CC(C)(C)CC[C@]6(C(=O)O)CC[C@]45C)[C@]3(C)CO)OC[C@H](O[C@@H]3O[C@H](CO)[C@@H](O)[C@H](O)[C@H]3O)[C@@H]2O)[C@H](O)[C@H](O)[C@H]1O [Pulsatilla saponin D] (compound dose: 10 uM)', 'cell viability', 0.145),
  ('CC(C)=CCC[C@@H](C)[C@@H]1CC[C@]2(C)C3=C(CC[C@@]12C)[C@@]1(C)CC[C@H](O)C(C)(C)[C@@H]1CC3 [Euphol] (compound dose: 10 uM)', 'cell viability', 0.977),
  ('C=C(C)[C@@H]1CC[C@]2(CO)CC[C@]3(C)[C@H](CC[C@@H]4[C@@]5(C)CC[C@H](O)C(C)(C)[C@@H]5CC[C@]43C)[C@@H]12 [Betulin] (compound dose: 2 uM)', 'cell viability', 0.842),
  ('CC(C)=CCC[C@](C)(O[C@@H]1O[C@H](CO[C@@H]2OC[C@@H](O)[C@H](O)[C@H]2O)[C@@H](O)[C@H](O)[C@H]1O)[C@H]1CC[C@]2(C)[C@@H]1[C@H](O)C[C@@H]1[C@@]3(C)CC[C@H](O[C@@H]4O[C@H](CO)[C@@H](O)[C@H](O)[C@H]4O[C@@H]4O[C@H](CO)[C@@H](O)[C@H](O)[C@H]4O)C(C)(C)[C@@H]3CC[C@]12C [Ginsenoside Rb3] (compound dose: 10 uM)', 'cell viability', 1.01),
  ('CC(CCC(OC1OC(CO)C(O)C(O)C1OC1OC(CO)C(O)C(O)C1O)C(C)(C)O)C1CCC2(C)C3CC=C4C(CCC(OC5OC(COC6OC(CO)C(O)C(O)C6O)C(O)C(O)C5O)C4(C)C)C3(C)C(O)CC12C (stereo not drawn) [Mogroside IV] (compound dose: 10 uM)', 'cell viability', 0.996),
  ('Cc1cc(O)c2c(c1)C(=O)c1cc(O)cc(O[C@@H]3O[C@H](CO)[C@@H](O)[C@H](O)[C@H]3O)c1C2=O [Emodin-8-glucoside] (compound dose: 10 uM)', 'cell viability', 0.984),
  ('C=C(C)[C@@H]1CC[C@]2(C)CC[C@]3(C)[C@H](CC[C@@H]4[C@@]5(C)CCC(=O)C(C)(C)[C@@H]5CC[C@]43C)[C@@H]12 [Lupenone] (compound dose: 10 uM)', 'cell viability', 0.979);

---

Tested on: MDA-MB-231
Test: cell viability relative to vehicle unstimulated control (fraction); higher = more viable cells
Details: pre-treatment time: 18 h then 24 h IFNg/TNF
Let's look at some molecules and their measured cell viability.
EXPERIMENTAL_READOUT: cell viability

INSERT INTO assay_data (molecule, meas_value) VALUES
  ('Cc1cc(O)cc(O[C@@H]2O[C@H](CO)[C@@H](O)[C@H](O)[C@H]2O)c1 [Orcinol glucoside] (compound dose: 10 uM)', 1.05),
  ('CC(=O)OCC1=CO[C@@H](OC(=O)CC(C)C)[C@H]2C1=C[C@H](OC(=O)CC(C)C)[C@]21CO1 [Valepotriate] (compound dose: 10 uM)', 0.185),
  ('CC1=C[C@H]2[C@@H](CC1)[C@H](C)CC[C@H]2[C@@H](C)C(=O)O [Dihydroartemisinic acid] (compound dose: 10 uM)', 1.11),
  ('C[C@H]1O[C@@H](O[C@H]2CC[C@@]3(C)[C@@H](CC[C@]4(C)[C@@H]3C=CC3=C5CC(C)(C)CC[C@]5(CO)[C@@H](O)C[C@]34C)[C@]2(C)CO)[C@H](O[C@@H]2O[C@H](CO)[C@@H](O)[C@H](O)[C@H]2O)[C@@H](O[C@@H]2O[C@H](CO)[C@@H](O)[C@H](O)[C@H]2O)[C@H]1O [Buddlejasaponin IVb] (compound dose: 10 uM)', 1.07),
  ('C=C1[C@H](OC(=O)/C=C(\C)CC)C[C@@H](C(C)C)[C@@H]2[C@@H]([C@@H](C)OC(C)=O)C(=O)C[C@@H]12 [Tussilagone] (compound dose: 10 uM)', 1.01),
  ('C/C=C(\C)C(=O)O[C@H]1[C@H](O)[C@]2(COC(C)=O)[C@@H](O)C[C@]3(C)C(=CC[C@@H]4[C@@]5(C)CC[C@H](O[C@@H]6O[C@H](C(=O)O)[C@@H](O)[C@H](O)[C@H]6O)[C@@](C)(CO)[C@@H]5CC[C@]43C)[C@@H]2CC1(C)C [Gymnemic acid I] (compound dose: 10 uM)', 1.1),
  ('CC(=O)O[C@@H]1[C@@H](O)[C@H](O[C@H]2CC[C@]34C[C@]35CC[C@]3(C)[C@@H]([C@@]6(C)CC[C@@H](C(C)(C)O)O6)[C@@H](O)C[C@@]3(C)[C@@H]5C[C@H](O[C@@H]3O[C@H](CO)[C@@H](O)[C@H](O)[C@H]3O)[C@H]4C2(C)C)OC[C@H]1O [Isoastragaloside II] (compound dose: 10 uM)', 0.99),
  ('C=C1CC[C@@H]2[C@](C)(COC(=O)CCC(=O)O)[C@H](OC(=O)CCC(=O)O)CC[C@@]2(C)[C@@H]1/C=C/C1=CCOC1=O [Kalii Dehydrographolidi Succinas] (compound dose: 2 uM)', 1.08);

---

Let's look at some molecules and their measured kynurenine production.
System: MDA-MB-231
Experiment: kynurenine production, fold change vs DMSO IFNg/TNF control; higher = more kynurenine produced (less inhibition)
Conditions: pre-treatment time: 18 h then 24 h IFNg/TNF
EXPERIMENTAL_READOUT: kynurenine production

INSERT INTO measurements (molecule, experimental_readout, meas_value) VALUES
  ('C=CCC(=NOS(=O)(=O)O)S[C@@H]1O[C@H](CO)[C@@H](O)[C@H](O)[C@H]1O (stereo in doubt) [Sinigrin] (compound dose: 10 uM)', 'kynurenine production', 1.04),
  ('C=C1C(=O)O[C@@H]2C[C@@]3(C)CCCC(=C)[C@@H]3C[C@H]12 [Isoalantolactone] (compound dose: 10 uM)', 'kynurenine production', 0.255),
  ('COC(=O)[C@@]1(C)CC[C@]2(C(=O)O)CC[C@]3(C)C(=CC[C@@H]4[C@@]5(C)C[C@H](O)[C@H](O)[C@@](C)(CO)[C@@H]5CC[C@]43C)[C@@H]2C1 [Phytolaccagenin] (compound dose: 10 uM)', 'kynurenine production', 0.875),
  ('CC(CCC(OC1OC(CO)C(O)C(O)C1OC1OC(CO)C(O)C(O)C1O)C(C)(C)O)C1CCC2(C)C3CC=C4C(CCC(OC5OC(COC6OC(CO)C(O)C(O)C6O)C(O)C(O)C5O)C4(C)C)C3(C)C(O)CC12C (stereo not given) [Mogroside IV] (compound dose: 10 uM)', 'kynurenine production', 1.12),
  ('CC(C)=CCCC1(C)CCC2(C)C3CCC4(C)C(C)C(=O)CCC4C3(C)CCC2(C)C1 (stereo not given) [Shionone] (compound dose: 10 uM)', 'kynurenine production', 0.776);
